B1: Pistol ribozyme (parent)
chain: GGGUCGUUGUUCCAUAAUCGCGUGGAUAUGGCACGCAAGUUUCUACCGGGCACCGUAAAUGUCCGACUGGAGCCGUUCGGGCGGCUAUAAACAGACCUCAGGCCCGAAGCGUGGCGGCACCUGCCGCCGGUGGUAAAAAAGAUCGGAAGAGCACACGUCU

# Variants of: B1
# experimentNotes: aptazyme ON/OFF ratio, guanine; higher = stronger switching; co-transcriptional cleavage with and without guanine
For each record, write down the corresponding aptazyme ON/OFF ratio.
Answers are plain numbers.

Provide aptazyme ON/OFF ratio for all items below, preserving their order.
1. U7A U8C G9A U10A
2. U7G U8G G9A U10C U11C C13U
3. G9U U11A
4. U7G U8C G9C U10G C12U C13A

1: 1.37; 2: 1.01; 3: 1.24; 4: 1.11
